Every entry's value here was drawn from the supplement of paper PMC3545927.

experimentalSystem: furin, P09958;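 further: purified furin at 1:10 enzyme:substrate in 50 mM HEPES pH 7.5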
Sequence (P09958 whole entry): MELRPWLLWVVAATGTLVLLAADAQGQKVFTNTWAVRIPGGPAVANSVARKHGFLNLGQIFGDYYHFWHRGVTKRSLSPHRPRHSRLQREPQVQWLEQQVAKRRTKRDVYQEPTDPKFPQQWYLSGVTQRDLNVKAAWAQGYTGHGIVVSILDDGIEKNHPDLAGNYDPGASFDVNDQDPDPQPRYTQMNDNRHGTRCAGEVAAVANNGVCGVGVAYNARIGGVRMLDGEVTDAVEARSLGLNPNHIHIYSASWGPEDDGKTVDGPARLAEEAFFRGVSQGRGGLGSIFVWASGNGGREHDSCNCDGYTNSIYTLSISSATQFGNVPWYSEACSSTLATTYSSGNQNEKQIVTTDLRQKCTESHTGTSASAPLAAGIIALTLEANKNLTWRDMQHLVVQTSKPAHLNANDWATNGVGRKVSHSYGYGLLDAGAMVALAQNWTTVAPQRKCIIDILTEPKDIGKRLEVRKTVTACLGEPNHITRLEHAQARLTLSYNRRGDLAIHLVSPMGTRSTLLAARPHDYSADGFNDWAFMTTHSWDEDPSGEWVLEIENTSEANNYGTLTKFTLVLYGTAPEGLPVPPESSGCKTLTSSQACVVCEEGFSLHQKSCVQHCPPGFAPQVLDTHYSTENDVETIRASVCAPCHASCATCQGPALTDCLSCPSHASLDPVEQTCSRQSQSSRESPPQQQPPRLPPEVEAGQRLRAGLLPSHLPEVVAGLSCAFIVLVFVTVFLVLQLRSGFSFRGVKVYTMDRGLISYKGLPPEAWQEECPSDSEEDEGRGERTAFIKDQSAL
protocolDescription: furin cleavage Z-score vs untreated control; higher = more cleavage, active = 3.5 or more, inactive = 1 or less, 8 variable residues between constant flanks
cond: 30 min
This is one part of the list. No count for the full screen is at hand.
Quick rule: furin cleavage Z-score of at least 3 means 1.0, below that means 0.0.

*Q* Entry CATVSSEANAAGNASASA [HC1364] : is its furin cleavage Z-score no less than 3?
*A* 0.0

*Q* Hello, I need to know if CAPGRRPRRGAGNASASA [FS-68] has measured furin cleavage Z-score not below 3. Thanks!
*A* 1.0

*Q* Decide: furin cleavage Z-score of CAPIIRKSRGAGNASASA [FS-1472] >= 3?
*A* 1.0

*Q* Does furin cleavage Z-score meet or surpass 3 for CARPFRQVLAAGNASASA [FS-2738] ?
*A* 0.0

*Q* Kindly determine if furin cleavage Z-score recorded for CALSTTGEIPAGNASASA [HC844] is above or exactly 3.
*A* 0.0

*Q* Decide: furin cleavage Z-score of CATVSRFRKAAGNASASA [FS-731] >= 3?
*A* 1.0

*Q* Decide: is the reported value of furin cleavage Z-score for CASVFLVGQLAGNASASA [HC302] equal to or greater than 3?
*A* 0.0

*Q* Please indicate if the recorded furin cleavage Z-score for CASKFGYGAKAGNASASA [HC1420] meets or exceeds 3.
*A* 0.0

*Q* State whether the measured furin cleavage Z-score reaches 3, counting equality as reaching it, for CAQDVLKEVKAGNASASA [HC1403]
*A* 0.0

*Q* Exam item: decide whether the reported furin cleavage Z-score for CAASSRPRRGAGNASASA [FS-10] is at least 3.
*A* 1.0

*Q* Record CAPTARPKRKAGNASASA [FS-913] ; criterion: furin cleavage Z-score no lower than 3. Met?
*A* 1.0

*Q* Answer whether furin cleavage Z-score of CAFYNRRRRSAGNASASA [FS-528] is greater than or equal to 3.
*A* 1.0
